experiment: mn = molality of the nth substance listed, in mol/kg; conditions: 303.15 K; 101.3 kPa; Liquid; Vibrating tube method; m1 = 0.2
± gives the expanded uncertainty stated by the source.
I'd appreciate it if you could supply mass density values for the items below.

## Input Recorded mass density for NCC(=O)O [2-aminoacetic acid] + O , please?
## Output 1001.91 ± 0.15 kg/m3

## Input Recorded mass density for N=C(N)NCCC[C@H](N)C(=O)O [L-arginine] + O , please?
## Output 1005.3 ± 0.27 kg/m3

## Input Recorded mass density for C[C@H](N)C(=O)O [(S)-2-aminopropanoic acid] + O , please?
## Output 1001.27 ± 0.18 kg/m3

## Input Recorded mass density for OC[C@@H](O)[C@@H](O)[C@H](O)[C@H](O)CO [D-mannitol] + O , please?
## Output 1007.82 ± 0.15 kg/m3

* * *

I'd appreciate it if you could supply viscosity values for the items below.
assay: mn = molality of the nth substance listed, in mol/kg; conditions: 303.15 K; 101.3 kPa; Liquid; Capillary tube (Ostwald / Ubbelohde) method; m1 = 0.6
± gives the expanded uncertainty stated by the source.
Write down the value, and be sure its unit follows.

## Input Recorded viscosity for N=C(N)NCCC[C@H](N)C(=O)O [L-arginine] + O , please?
## Output 1.069 ± 0.023 mPa·s

## Input Recorded viscosity for OC[C@@H](O)[C@@H](O)[C@H](O)[C@H](O)CO [D-mannitol] + O , please?
## Output 1.044 ± 0.022 mPa·s

## Input Recorded viscosity for NCC(=O)O [2-aminoacetic acid] + O , please?
## Output 0.867 ± 0.018 mPa·s

## Input Recorded viscosity for C[C@@H](O)[C@H](N)C(=O)O [L-threonine] + O , please?
## Output 0.965 ± 0.02 mPa·s

* * *

assay: mn = molality of the nth substance listed, in mol/kg; settings: 313.15 K; 101.3 kPa; Liquid; Capillary tube (Ostwald / Ubbelohde) method; m1 = 0.6
PARAMETER: viscosity (mPa·s)
Please reply with the bare figure in mPa·s and do not write the unit itself.

## Input Recorded viscosity for OC[C@@H](O)[C@@H](O)[C@H](O)[C@H](O)CO [D-mannitol] + O , please?
## Output 0.841

## Input Recorded viscosity for N=C(N)NCCC[C@H](N)C(=O)O [L-arginine] + O , please?
## Output 0.864

## Input Recorded viscosity for C[C@@H](O)[C@H](N)C(=O)O [L-threonine] + O , please?
## Output 0.782

## Input Recorded viscosity for NCC(=O)O [2-aminoacetic acid] + O , please?
## Output 0.711

* * *

assay: mn = molality of the nth substance listed, in mol/kg; details: 293.15 K; 101.3 kPa; Liquid; Vibrating tube method; m1 = 0.2
I'd appreciate it if you could supply mass density values for the items below.
Please reply with the bare figure in kg/m3 and do not write the unit itself.

## Input Recorded mass density for NCC(=O)O [2-aminoacetic acid] + O , please?
## Output 1004.57

## Input Recorded mass density for OC[C@@H](O)[C@@H](O)[C@H](O)[C@H](O)CO [D-mannitol] + O , please?
## Output 1010.52

## Input Recorded mass density for N=C(N)NCCC[C@H](N)C(=O)O [L-arginine] + O , please?
## Output 1008

## Input Recorded mass density for C[C@H](N)C(=O)O [(S)-2-aminopropanoic acid] + O , please?
## Output 1003.88
